Reference source: the supplement of paper PMC10065799

- Target Entity: Hck (UniProt P08631)
- Sequence (P08631 whole entry, looked up): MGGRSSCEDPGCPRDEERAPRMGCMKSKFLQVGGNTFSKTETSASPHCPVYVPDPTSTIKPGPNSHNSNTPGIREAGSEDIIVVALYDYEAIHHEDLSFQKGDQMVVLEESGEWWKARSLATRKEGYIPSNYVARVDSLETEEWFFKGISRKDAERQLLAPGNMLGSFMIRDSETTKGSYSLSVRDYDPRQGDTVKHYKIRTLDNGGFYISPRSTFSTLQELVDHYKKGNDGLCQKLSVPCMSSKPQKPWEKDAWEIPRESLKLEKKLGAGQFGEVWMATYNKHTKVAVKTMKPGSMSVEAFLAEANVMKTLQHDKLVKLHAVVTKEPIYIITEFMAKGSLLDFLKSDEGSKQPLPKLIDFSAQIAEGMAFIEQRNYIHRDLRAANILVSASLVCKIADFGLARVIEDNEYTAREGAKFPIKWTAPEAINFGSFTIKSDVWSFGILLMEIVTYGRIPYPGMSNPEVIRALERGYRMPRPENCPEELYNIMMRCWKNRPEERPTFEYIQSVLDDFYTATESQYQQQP
- Measurement Notes: phosphorylation enrichment, bacterial display (enrichment ratio); higher = better substrate or ligand; peptides without Tyr show the background
Assign true whenever phosphorylation enrichment does not fall below 0.7; assign false whenever it does.

Input Sequence	Assigned Category
QLHEHYKIHKE [NSMAF_Y626]	false
GIMEEYQLPYY [BMPR1A_Y453_V450M]	true
AYGNLYGSRKQ [YIPF7_Y59]	true
KTTILYKLKLG [ARF1_Y35]	false
ENQEIYRKAFD [KPNA1_Y493_Q494R]	false

Now for another entry.
Record RVGVDYEGRGC [PLOD1_Y675_G678R] ; criterion: phosphorylation enrichment no lower than 0.7. Met?
false

---

- Target Entity: FGFR1 (UniProt P11362)
- Sequence (P11362 whole entry, looked up): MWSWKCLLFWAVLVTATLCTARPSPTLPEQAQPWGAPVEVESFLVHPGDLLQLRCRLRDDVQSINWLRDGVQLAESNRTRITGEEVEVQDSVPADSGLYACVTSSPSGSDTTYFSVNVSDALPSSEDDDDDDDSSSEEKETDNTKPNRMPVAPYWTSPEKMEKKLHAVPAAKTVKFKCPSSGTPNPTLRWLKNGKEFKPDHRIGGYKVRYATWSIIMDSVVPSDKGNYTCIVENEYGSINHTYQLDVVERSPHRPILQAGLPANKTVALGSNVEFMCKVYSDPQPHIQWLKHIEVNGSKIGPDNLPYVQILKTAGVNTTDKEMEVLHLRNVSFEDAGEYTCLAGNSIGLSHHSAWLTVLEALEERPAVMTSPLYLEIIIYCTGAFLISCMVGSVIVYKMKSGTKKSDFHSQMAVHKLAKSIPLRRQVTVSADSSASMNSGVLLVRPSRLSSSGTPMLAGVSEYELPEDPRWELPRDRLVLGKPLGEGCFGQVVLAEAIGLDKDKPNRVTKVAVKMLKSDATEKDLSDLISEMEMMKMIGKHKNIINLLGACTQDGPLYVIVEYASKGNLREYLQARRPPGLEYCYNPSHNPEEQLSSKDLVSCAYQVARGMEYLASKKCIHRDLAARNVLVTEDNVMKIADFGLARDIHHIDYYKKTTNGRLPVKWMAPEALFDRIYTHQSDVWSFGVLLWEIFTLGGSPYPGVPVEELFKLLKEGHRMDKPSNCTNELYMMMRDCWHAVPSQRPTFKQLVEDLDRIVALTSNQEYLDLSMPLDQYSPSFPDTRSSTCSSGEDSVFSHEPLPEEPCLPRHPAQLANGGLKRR
- Measurement Notes: phosphorylation enrichment, bacterial display (enrichment ratio); higher = better substrate or ligand; peptides without Tyr show the background
Measured phosphorylation enrichment of individual entries
# print the numeric value only

Input Sequence	phosphorylation enrichment
CTTIHNNFMCN [TP53_Y234_Y234N_YF]	0.51
PEPTGYSAELS [EZR_Y499_A494P]	0.502
MYQVQYNSSVD [LRFN1_Y458]	0.488

Pending sequence:
Fill in: phosphorylation enrichment of KIMVIYDGACQ [VWDE_Y1035_T1032M] is ___
0.687

---

- Target Entity: Grb2 SH2 (UniProt P62993)
- Sequence (P62993 whole entry, looked up): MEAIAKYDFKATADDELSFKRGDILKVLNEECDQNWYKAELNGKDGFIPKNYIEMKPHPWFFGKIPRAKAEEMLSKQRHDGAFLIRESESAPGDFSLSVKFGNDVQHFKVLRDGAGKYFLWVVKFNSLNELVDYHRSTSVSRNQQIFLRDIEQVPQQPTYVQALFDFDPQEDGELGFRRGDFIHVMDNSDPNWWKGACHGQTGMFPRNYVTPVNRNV
- Measurement Notes: SH2 binding enrichment of the phosphorylated peptide, bacterial display (enrichment ratio); higher = better substrate or ligand; peptides without Tyr show the background
Result Type: SH2 binding enrichment
// return a plain number; no unit text

Which measured SH2 binding enrichment belongs to RREQDYTNLPS [CSF1R_Y923_R921Q] , tested on Grb2 SH2 (UniProt P62993)?
0.926

# returns recorded SH2 binding enrichment (system: Grb2 SH2 (UniProt P62993)) for SPLTDYSPQLQ [OTC_Y345_L341P]
0.878

Give Grb2 SH2 (UniProt P62993) SH2 binding enrichment for VFSTDYFRVGG [NTRK2_Y706_YF]
0.761

Lab request: please report SH2 binding enrichment under test system Grb2 SH2 (UniProt P62993) for VTNHIYTWVDP [DFNB31_Y234]
1.14

Quick check: SH2 binding enrichment on Grb2 SH2 (UniProt P62993), item EEEPVYKAEPE [HCLS1_Y360_E361K] ?
0.797

---

- Target Entity: EPHB2 (UniProt P29323)
- Sequence (P29323 whole entry, looked up): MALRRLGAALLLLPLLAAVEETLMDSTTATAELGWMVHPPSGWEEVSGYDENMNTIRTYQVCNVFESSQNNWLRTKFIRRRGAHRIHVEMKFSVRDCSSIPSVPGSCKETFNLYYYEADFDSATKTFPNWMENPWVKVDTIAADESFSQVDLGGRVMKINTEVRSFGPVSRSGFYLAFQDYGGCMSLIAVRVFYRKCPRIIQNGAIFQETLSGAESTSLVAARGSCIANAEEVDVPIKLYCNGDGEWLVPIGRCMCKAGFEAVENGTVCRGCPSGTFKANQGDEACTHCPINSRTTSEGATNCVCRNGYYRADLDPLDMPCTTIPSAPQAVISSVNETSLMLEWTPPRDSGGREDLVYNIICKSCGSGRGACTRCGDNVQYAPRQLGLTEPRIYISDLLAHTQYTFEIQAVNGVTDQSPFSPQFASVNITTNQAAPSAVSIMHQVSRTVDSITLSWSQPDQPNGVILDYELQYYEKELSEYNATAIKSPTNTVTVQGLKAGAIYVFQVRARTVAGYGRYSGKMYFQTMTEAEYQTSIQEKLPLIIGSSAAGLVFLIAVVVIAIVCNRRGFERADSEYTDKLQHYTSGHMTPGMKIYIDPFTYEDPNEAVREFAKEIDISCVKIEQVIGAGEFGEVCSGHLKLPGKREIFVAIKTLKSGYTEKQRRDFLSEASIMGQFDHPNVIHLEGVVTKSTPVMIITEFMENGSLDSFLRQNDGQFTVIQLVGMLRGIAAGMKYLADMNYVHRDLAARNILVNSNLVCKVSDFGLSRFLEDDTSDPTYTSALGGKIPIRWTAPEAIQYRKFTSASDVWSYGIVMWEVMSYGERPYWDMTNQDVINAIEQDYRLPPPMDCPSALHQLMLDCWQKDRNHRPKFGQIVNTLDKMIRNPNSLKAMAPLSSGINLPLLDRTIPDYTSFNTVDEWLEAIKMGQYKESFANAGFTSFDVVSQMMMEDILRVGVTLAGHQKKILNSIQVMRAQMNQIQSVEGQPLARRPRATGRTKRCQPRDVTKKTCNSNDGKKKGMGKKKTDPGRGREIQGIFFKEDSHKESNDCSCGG
- Measurement Notes: phosphorylation enrichment, bacterial display (enrichment ratio); higher = better substrate or ligand; peptides without Tyr show the background
Quick reference: phosphorylation enrichment of the listed items.

Examples with answers:
Input Sequence	Reported
GSRGKYSSGFC [ATM_Y332_R337C]	0.406
SPFAVYLFFTF [RPGRIP1_Y826_R827L_YF]	0.744
CTTILYNFMCN [TP53_Y234_H233L_YF]	0.622
LVRAFYCERRW [CARD11_Y970_R975W]	0.623

Moving on to another sequence below.
Data request, read-out phosphorylation enrichment, for TFSPPYYHRNC [HGD_Y333_R330S]
0.52

---

- Target Entity: c-Src SH2
- Measurement Notes: SH2 binding enrichment of the phosphorylated peptide, bacterial display (enrichment ratio); higher = better substrate or ligand; peptides without Tyr show the background
Result Type: SH2 binding enrichment
Answer with a bare number; do not write a unit.

Input Sequence	Target Entity	SH2 binding enrichment
LMLVLYGRIFL [HTR1A_Y215_R220L]	c-Src SH2	0.556
EEVGIYRMSGV [BCR_Y1089_V1091M]	c-Src SH2	0.431
DKATEYSQYMR [MAX_Y70_I71S]	c-Src SH2	0.609
EALDFCGEVRT [PTEN_Y155_Y155C]	c-Src SH2	0.534
RSRQIYDAFIM [GRK3_Y109_YF]	c-Src SH2	0.64

Field: next sequence
Looking for the measured SH2 binding enrichment of FGSRLYKFAFK [FANCD2_Y458_L456R_YF] , can you help?
0.568

---

- Target Entity: c-Src SH2
- Measurement Notes: SH2 binding enrichment of the phosphorylated peptide, bacterial display (enrichment ratio); higher = better substrate or ligand; peptides without Tyr show the background
SH2 binding enrichment for assorted sequences
Format: numeric value only, no unit, no commentary.

Example entries begin here.
Input Sequence	Target Entity	SH2 binding enrichment
GPQGFYSNKLV [PTPN14_Y506_V505F]	c-Src SH2	0.465
KKHIPYREHKS [CSNK1G1_Y205]	c-Src SH2	1.88

// lookup SH2 binding enrichment for GFFDLYGGEKF [PTPN11_Y66_D61G_YF]
0.564

Endpoint output: SH2 binding enrichment of RETSLYKACER [ASB2_Y162_P160S] . Value?
0.857

I have this sequence here, EEAAGYAQESQ [CAMKV_Y491] , and I need its recorded SH2 binding enrichment.
0.577

Using the record for MTRDIYETDFF [INSR_Y1185_YF] , report its SH2 binding enrichment.
0.997

Need SH2 binding enrichment of QRRLVYYERGA [RYR1_Y245_G248R] , thanks.
0.662

Quick one: SH2 binding enrichment of SEDSEYFKAFE [CASQ2_Y178_YF] ?
0.544

// lookup SH2 binding enrichment for LLTALYFISRG [KCNH2_Y780]
2.43

Using the record for ENELTYFCCKK [CD59_Y86_YF] , report its SH2 binding enrichment.
0.711

Any idea what its SH2 binding enrichment is? The sequence is LSPNMYNSKFW [TARSL2_Y457_L461F]
0.506

Need SH2 binding enrichment, item SLDLSYFTTSS [EMD_Y181_P183T_YF]
0.55

I am curious: what SH2 binding enrichment value has been reported for NFRPGYNNFFN [USH2A_Y467_YF] ?
0.497

Tell me the measured SH2 binding enrichment of KVGNGYISAAE [CALM2_Y100_D96V] , please.
0.53

I would be grateful if you could share the reported SH2 binding enrichment for RLNWIYYKDQT [RS1_Y165] .
0.735

Using the record for NVVNEYSSELE [FGB_Y172] , report its SH2 binding enrichment.
0.556

Can you look up the measured SH2 binding enrichment of LFNQDYPIHCV [GATM_Y227_S231C_YF] for me?
0.407

Using the record for DGQVNYEGFVQ [CALM1_Y139_E141G] , report its SH2 binding enrichment.
0.586

Which SH2 binding enrichment is listed for KSFDMYSGDVM [FAM3D_Y122_A118S] ?
0.613

---

- Target Entity: Hck (UniProt P08631)
- Measurement Notes: phosphorylation enrichment, bacterial display (enrichment ratio); higher = better substrate or ligand; peptides without Tyr show the background
Result Type: phosphorylation enrichment
Give a plain numeric answer without units written out.

# annotated cases, reported phosphorylation enrichment shown
Input Sequence	phosphorylation enrichment
TWNPKYTLRSH [STRN3_Y474]	0.492
RWGQKHMTAVV [CYBA_Y72_Y72H]	0.5

// switching to the query sequence
Entry LAGRFYALKSM [CKB_Y174_YF] , system Hck (UniProt P08631): what phosphorylation enrichment was measured?
0.509

---

- Target Entity: Fyn (UniProt P06241)
- Sequence (P06241 whole entry, looked up): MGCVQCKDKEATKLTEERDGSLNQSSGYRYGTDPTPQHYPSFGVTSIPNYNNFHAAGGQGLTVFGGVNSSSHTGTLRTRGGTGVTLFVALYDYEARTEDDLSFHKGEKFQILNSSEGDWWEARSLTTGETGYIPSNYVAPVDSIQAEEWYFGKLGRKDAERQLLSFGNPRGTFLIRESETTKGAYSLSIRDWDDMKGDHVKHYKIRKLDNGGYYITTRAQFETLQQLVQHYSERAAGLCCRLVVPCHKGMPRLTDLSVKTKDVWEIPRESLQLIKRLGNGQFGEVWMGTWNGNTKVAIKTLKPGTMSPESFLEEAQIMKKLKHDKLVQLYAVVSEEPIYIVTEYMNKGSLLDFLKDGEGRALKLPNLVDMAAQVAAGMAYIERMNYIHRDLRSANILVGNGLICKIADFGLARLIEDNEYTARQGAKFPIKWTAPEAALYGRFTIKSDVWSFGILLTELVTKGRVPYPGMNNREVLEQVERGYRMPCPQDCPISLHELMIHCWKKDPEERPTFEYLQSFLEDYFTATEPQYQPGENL
- Measurement Notes: phosphorylation enrichment, bacterial display (enrichment ratio); higher = better substrate or ligand; peptides without Tyr show the background
# phosphorylation enrichment per entry
Returns: the value as a bare number; no unit string appended.

Input Sequence	phosphorylation enrichment
RFLERYIYNRQ [HLA-DPB1_Y57_E62Q]	0.813
TSESSYFKSLN [NGEF_Y288_A286S_YF]	0.395
FMYKVYSDPQP [FGFR1_Y280_C277Y]	0.526

Now take the following sequence into account.
# lookup: phosphorylation enrichment of MAYDRYAAICS [OR8H2_Y123_H120Y]
0.526

---

- System: AncSZ
- Measurement Notes: phosphorylation enrichment, bacterial display (enrichment ratio); higher = better substrate or ligand; peptides without Tyr show the background
Consider the following sequences and their measured phosphorylation enrichment readings.
Give a plain numeric answer without units written out.

These recorded examples may help you get a feel for the data.
Input Sequence	Target Entity	phosphorylation enrichment
MANYMYKAGPS [MAML2_Y515]	AncSZ	0.636
HNELYYEEAEH [VANGL1_Y345]	AncSZ	2.06
YDCKWYIPLTD [BCR_Y756]	AncSZ	1.47
MARDISRASFF [ALK_Y1278_Y1278S_YF]	AncSZ	0.626
IMAFFYMCDRA [CASD1_Y382_YF]	AncSZ	1.48

Quick check: phosphorylation enrichment of EEQKKNFNAMK [SCN5A_Y1494_Y1494N_YF] ?
0.908

Would you mind telling me what phosphorylation enrichment value was observed for RGDCMYASLLG [AR_Y269_P271S] ?
1.25

Item under review: EEVGIYRMSGV [BCR_Y1089_V1091M] . Reported phosphorylation enrichment?
0.925
